The measured values listed here are drawn from patent US5990170A.

Biological target: CB2 receptor (RBL-2H3 cell membranes) (Rattus norvegicus, UniProt Q9QZN9)
Construct: Preparation of Plasmatic Membranes of RBL-2H3 Cells; endogenous in cells; host or cells: RBL-2H3 (rat basophilic leukemia) cell membranes
Sequence (Q9QZN9 1-360): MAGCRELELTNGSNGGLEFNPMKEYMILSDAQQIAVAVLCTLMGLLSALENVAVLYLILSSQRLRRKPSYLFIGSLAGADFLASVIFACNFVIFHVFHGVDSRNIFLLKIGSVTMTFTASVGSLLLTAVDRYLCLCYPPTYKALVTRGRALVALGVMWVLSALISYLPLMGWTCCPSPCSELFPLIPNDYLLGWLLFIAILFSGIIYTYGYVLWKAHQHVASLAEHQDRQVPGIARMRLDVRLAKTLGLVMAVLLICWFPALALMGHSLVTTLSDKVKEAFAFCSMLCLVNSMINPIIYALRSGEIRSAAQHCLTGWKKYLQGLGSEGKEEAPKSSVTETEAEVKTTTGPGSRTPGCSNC
Experiment: Competitive displacement of 3H-WIN 55,212-2 binding to RBL-2H3 cell membranes
Conditions: competitor 10 μM; 0.1% DMSO
Could you please report measured Specific binding for the items listed next?
Number, no unit, nothing else.

Name the reported Specific binding value associated with the molecule CCCCCCCCCCCCCCCC(=O)N[C@@H](CO)c1ccccc1
325

Name the reported Specific binding value associated with the molecule CCCCCCCCCCCCCCCC(=O)NCCO [Example 25, N-palmitoylethanolamide]
1103

Name the reported Specific binding value associated with the molecule CCCCCCCCCCCCCCCC(=O)NCCOP(=O)(O)O [Example 27, N-palmitoylethanolamide phosphate]
843

Name the reported Specific binding value associated with the molecule O=C(/C=C/CCCCCCCCC(=O)NCCO)NCCO
402
